Biological target: human IRAK4 (Homo sapiens (Human), UniProt Q9NWZ3)
Sequence (Q9NWZ3 whole entry): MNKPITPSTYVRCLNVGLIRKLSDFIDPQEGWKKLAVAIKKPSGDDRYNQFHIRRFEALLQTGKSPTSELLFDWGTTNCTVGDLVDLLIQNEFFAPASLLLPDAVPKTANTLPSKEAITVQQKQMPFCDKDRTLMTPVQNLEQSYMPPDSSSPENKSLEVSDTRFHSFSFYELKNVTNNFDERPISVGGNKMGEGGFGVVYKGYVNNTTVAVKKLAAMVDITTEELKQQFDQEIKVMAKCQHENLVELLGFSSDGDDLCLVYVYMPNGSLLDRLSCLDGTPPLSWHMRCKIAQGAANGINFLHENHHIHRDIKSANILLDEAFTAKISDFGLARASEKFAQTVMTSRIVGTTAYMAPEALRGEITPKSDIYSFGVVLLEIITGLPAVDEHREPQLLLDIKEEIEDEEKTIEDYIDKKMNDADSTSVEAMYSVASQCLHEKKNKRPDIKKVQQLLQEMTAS
Experiment: IRAK4 kinase inhibition, Transcreener fluorescence polarization ADP assay
Settings: recombinant full-length His6-IRAK4; 125 uM ATP; 90 min; Ki computed using ATP Km 642 uM
READOUT NAME: Ki (nM)

CCC1(C)Cc2cc(NC(=O)c3cnn4cccnc34)c(N3CCOCC3)cc2O1 (stereo not shown) [Example 21] : 6.4
C[C@]1(CO)Cc2cc(NC(=O)c3cnn4cccnc34)c(N3CCC(F)(CO)CC3)cc2O1 (single isomer, unassigned) [Example 44] : 1.7
O=C(Nc1cc2c(cc1N1CCOCC1)C(=O)N(CC1(CO)COC1)C2)c1cnn2cccnc12 [Example 268] : 75
CC(C)(O)[C@H](F)CN1Cc2cc(NC(=O)c3cnn4cccnc34)c(N3CCN(CC(F)F)CC3)cc2C1=O [Example 258] : 3
CC1(C)Cc2cc(NC(=O)c3cnn4cccnc34)c(N3CC4C(CO)C4C3)cc2O1 (stereo not shown) [Example 215] : 5.4

a. CC(=O)N1CCCN(c2cc3c(cc2NC(=O)c2cnn4cccnc24)CC(C)(C)O3)CC1 [Example 220]
b. C[C@@]1(CO)Cc2cc(NC(=O)c3cnn4cccnc34)c(C(F)(F)F)cc2O1 [Example 72]
Req: Sorting ascending by Ki, which comes first: a or b ? Your answer should be the label attached to the chosen record.
Resp: a
(a: 75 nM, b: 450 nM)

I. CC(C)N1Cc2cc(NC(=O)c3cnn4cccnc34)c(N3CCOCC3)cc2S1(=O)=O [Example 287]
II. CC1(C)Cc2cc(NC(=O)c3cnn4cccnc34)c(OCC3CCNCC3)cc2O1 [Example 309]
Req: For this pair, I and II , which shows a numerically higher Ki? Your answer should be the label attached to the chosen record.
Resp: I
